Exercise: for every item that follows, state its recorded sfGFP reporter fluorescence.
B1: library; a variant is named by its letters at X, in order (parent)
chain: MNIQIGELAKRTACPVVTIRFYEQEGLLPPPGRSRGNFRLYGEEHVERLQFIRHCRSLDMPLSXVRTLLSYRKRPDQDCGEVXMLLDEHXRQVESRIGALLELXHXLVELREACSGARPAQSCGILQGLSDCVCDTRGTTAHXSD

Variants of: B1
Test: sfGFP reporter fluorescence (15 h) (µM FITC); higher = stronger transcriptional activation
Conditions: library round: Round 3b; ligand: 30 µM Zn
Numbers only.

These solved cases illustrate the format of a correct answer.
>>> experimental_value("MNIQIGELAKRTACPVVTIRFYEQEGLLPPPGRSRGNFRLYGEEHVERLQFIRHCRSLDMPLSDVRTLLSYRKRPDQDCGEVIMLLDEHARQVESRIGALLELVHALVELREACSGARPAQSCGILQGLSDCVCDTRGTTAHPSD [DIAVAP]")
0.0441
>>> experimental_value("MNIQIGELAKRTACPVVTIRFYEQEGLLPPPGRSRGNFRLYGEEHVERLQFIRHCRSLDMPLSDVRTLLSYRKRPDQDCGEVFMLLDEHARQVESRIGALLELTHALVELREACSGARPAQSCGILQGLSDCVCDTRGTTAHTSD [DFATAT]")
0.0455
>>> experimental_value("MNIQIGELAKRTACPVVTIRFYEQEGLLPPPGRSRGNFRLYGEEHVERLQFIRHCRSLDMPLSDVRTLLSYRKRPDQDCGEVNMLLDEHARQVESRIGALLELTHALVELREACSGARPAQSCGILQGLSDCVCDTRGTTAHRSD [DNATAR]")
0.0627
>>> experimental_value("MNIQIGELAKRTACPVVTIRFYEQEGLLPPPGRSRGNFRLYGEEHVERLQFIRHCRSLDMPLSKVRTLLSYRKRPDQDCGEVIMLLDEHARQVESRIGALLELVHELVELREACSGARPAQSCGILQGLSDCVCDTRGTTAHPSD [KIAVEP]")
0.0578

Give measured sfGFP reporter fluorescence for every item shown.
1. MNIQIGELAKRTACPVVTIRFYEQEGLLPPPGRSRGNFRLYGEEHVERLQFIRHCRSLDMPLSKVRTLLSYRKRPDQDCGEVNMLLDEHIRQVESRIGALLELTHELVELREACSGARPAQSCGILQGLSDCVCDTRGTTAHTSD [KNITET]
2. MNIQIGELAKRTACPVVTIRFYEQEGLLPPPGRSRGNFRLYGEEHVERLQFIRHCRSLDMPLSKVRTLLSYRKRPDQDCGEVNMLLDEHARQVESRIGALLELVHALVELREACSGARPAQSCGILQGLSDCVCDTRGTTAHTSD [KNAVAT]
3. MNIQIGELAKRTACPVVTIRFYEQEGLLPPPGRSRGNFRLYGEEHVERLQFIRHCRSLDMPLSDVRTLLSYRKRPDQDCGEVNMLLDEHARQVESRIGALLELVHALVELREACSGARPAQSCGILQGLSDCVCDTRGTTAHRSD [DNAVAR]
4. MNIQIGELAKRTACPVVTIRFYEQEGLLPPPGRSRGNFRLYGEEHVERLQFIRHCRSLDMPLSKVRTLLSYRKRPDQDCGEVIMLLDEHARQVESRIGALLELKHALVELREACSGARPAQSCGILQGLSDCVCDTRGTTAHTSD [KIAKAT]
5. MNIQIGELAKRTACPVVTIRFYEQEGLLPPPGRSRGNFRLYGEEHVERLQFIRHCRSLDMPLSKVRTLLSYRKRPDQDCGEVNMLLDEHARQVESRIGALLELVHELVELREACSGARPAQSCGILQGLSDCVCDTRGTTAHRSD [KNAVER]

Response line:
1: 0.944; 2: 0.237; 3: 0.0579; 4: 0.0628; 5: 0.313

Give measured sfGFP reporter fluorescence for every item shown.
1. MNIQIGELAKRTACPVVTIRFYEQEGLLPPPGRSRGNFRLYGEEHVERLQFIRHCRSLDMPLSDVRTLLSYRKRPDQDCGEVFMLLDEHARQVESRIGALLELVHHLVELREACSGARPAQSCGILQGLSDCVCDTRGTTAHTSD [DFAVHT]
2. MNIQIGELAKRTACPVVTIRFYEQEGLLPPPGRSRGNFRLYGEEHVERLQFIRHCRSLDMPLSKVRTLLSYRKRPDQDCGEVFMLLDEHIRQVESRIGALLELTHELVELREACSGARPAQSCGILQGLSDCVCDTRGTTAHTSD [KFITET]
3. MNIQIGELAKRTACPVVTIRFYEQEGLLPPPGRSRGNFRLYGEEHVERLQFIRHCRSLDMPLSDVRTLLSYRKRPDQDCGEVFMLLDEHARQVESRIGALLELTHALVELREACSGARPAQSCGILQGLSDCVCDTRGTTAHRSD [DFATAR]
4. MNIQIGELAKRTACPVVTIRFYEQEGLLPPPGRSRGNFRLYGEEHVERLQFIRHCRSLDMPLSKVRTLLSYRKRPDQDCGEVIMLLDEHARQVESRIGALLELVHHLVELREACSGARPAQSCGILQGLSDCVCDTRGTTAHTSD [KIAVHT]
5. MNIQIGELAKRTACPVVTIRFYEQEGLLPPPGRSRGNFRLYGEEHVERLQFIRHCRSLDMPLSKVRTLLSYRKRPDQDCGEVIMLLDEHARQVESRIGALLELTHELVELREACSGARPAQSCGILQGLSDCVCDTRGTTAHTSD [KIATET]

Response line:
0.0473
0.0737
0.0448
0.0797
0.0663

Give measured sfGFP reporter fluorescence for every item shown.
1. MNIQIGELAKRTACPVVTIRFYEQEGLLPPPGRSRGNFRLYGEEHVERLQFIRHCRSLDMPLSKVRTLLSYRKRPDQDCGEVIMLLDEHIRQVESRIGALLELVHELVELREACSGARPAQSCGILQGLSDCVCDTRGTTAHTSD [KIIVET]
2. MNIQIGELAKRTACPVVTIRFYEQEGLLPPPGRSRGNFRLYGEEHVERLQFIRHCRSLDMPLSKVRTLLSYRKRPDQDCGEVNMLLDEHIRQVESRIGALLELTHALVELREACSGARPAQSCGILQGLSDCVCDTRGTTAHTSD [KNITAT]
3. MNIQIGELAKRTACPVVTIRFYEQEGLLPPPGRSRGNFRLYGEEHVERLQFIRHCRSLDMPLSDVRTLLSYRKRPDQDCGEVFMLLDEHIRQVESRIGALLELTHELVELREACSGARPAQSCGILQGLSDCVCDTRGTTAHRSD [DFITER]
4. MNIQIGELAKRTACPVVTIRFYEQEGLLPPPGRSRGNFRLYGEEHVERLQFIRHCRSLDMPLSKVRTLLSYRKRPDQDCGEVIMLLDEHIRQVESRIGALLELVHALVELREACSGARPAQSCGILQGLSDCVCDTRGTTAHTSD [KIIVAT]
5. MNIQIGELAKRTACPVVTIRFYEQEGLLPPPGRSRGNFRLYGEEHVERLQFIRHCRSLDMPLSDVRTLLSYRKRPDQDCGEVIMLLDEHIRQVESRIGALLELVHALVELREACSGARPAQSCGILQGLSDCVCDTRGTTAHTSD [DIIVAT]

Response line:
1: 0.0557; 2: 0.972; 3: 0.0451; 4: 0.0534; 5: 0.0469

Give measured sfGFP reporter fluorescence for every item shown.
1. MNIQIGELAKRTACPVVTIRFYEQEGLLPPPGRSRGNFRLYGEEHVERLQFIRHCRSLDMPLSKVRTLLSYRKRPDQDCGEVFMLLDEHIRQVESRIGALLELKHELVELREACSGARPAQSCGILQGLSDCVCDTRGTTAHRSD [KFIKER]
2. MNIQIGELAKRTACPVVTIRFYEQEGLLPPPGRSRGNFRLYGEEHVERLQFIRHCRSLDMPLSKVRTLLSYRKRPDQDCGEVNMLLDEHIRQVESRIGALLELTHALVELREACSGARPAQSCGILQGLSDCVCDTRGTTAHRSD [KNITAR]
3. MNIQIGELAKRTACPVVTIRFYEQEGLLPPPGRSRGNFRLYGEEHVERLQFIRHCRSLDMPLSKVRTLLSYRKRPDQDCGEVNMLLDEHARQVESRIGALLELTHELVELREACSGARPAQSCGILQGLSDCVCDTRGTTAHRSD [KNATER]

Response line:
[0.0496, 1.07, 0.336]

Prompt line: Identify the reported sfGFP reporter fluorescence for the following entry. MNIQIGELAKRTACPVVTIRFYEQEGLLPPPGRSRGNFRLYGEEHVERLQFIRHCRSLDMPLSKVRTLLSYRKRPDQDCGEVIMLLDEHARQVESRIGALLELVHALVELREACSGARPAQSCGILQGLSDCVCDTRGTTAHRSD [KIAVAR]
Response line: 0.0523
